Molecular target: Receptor-type tyrosine-protein phosphatase F (Homo sapiens)
Sequence (P10586 whole entry): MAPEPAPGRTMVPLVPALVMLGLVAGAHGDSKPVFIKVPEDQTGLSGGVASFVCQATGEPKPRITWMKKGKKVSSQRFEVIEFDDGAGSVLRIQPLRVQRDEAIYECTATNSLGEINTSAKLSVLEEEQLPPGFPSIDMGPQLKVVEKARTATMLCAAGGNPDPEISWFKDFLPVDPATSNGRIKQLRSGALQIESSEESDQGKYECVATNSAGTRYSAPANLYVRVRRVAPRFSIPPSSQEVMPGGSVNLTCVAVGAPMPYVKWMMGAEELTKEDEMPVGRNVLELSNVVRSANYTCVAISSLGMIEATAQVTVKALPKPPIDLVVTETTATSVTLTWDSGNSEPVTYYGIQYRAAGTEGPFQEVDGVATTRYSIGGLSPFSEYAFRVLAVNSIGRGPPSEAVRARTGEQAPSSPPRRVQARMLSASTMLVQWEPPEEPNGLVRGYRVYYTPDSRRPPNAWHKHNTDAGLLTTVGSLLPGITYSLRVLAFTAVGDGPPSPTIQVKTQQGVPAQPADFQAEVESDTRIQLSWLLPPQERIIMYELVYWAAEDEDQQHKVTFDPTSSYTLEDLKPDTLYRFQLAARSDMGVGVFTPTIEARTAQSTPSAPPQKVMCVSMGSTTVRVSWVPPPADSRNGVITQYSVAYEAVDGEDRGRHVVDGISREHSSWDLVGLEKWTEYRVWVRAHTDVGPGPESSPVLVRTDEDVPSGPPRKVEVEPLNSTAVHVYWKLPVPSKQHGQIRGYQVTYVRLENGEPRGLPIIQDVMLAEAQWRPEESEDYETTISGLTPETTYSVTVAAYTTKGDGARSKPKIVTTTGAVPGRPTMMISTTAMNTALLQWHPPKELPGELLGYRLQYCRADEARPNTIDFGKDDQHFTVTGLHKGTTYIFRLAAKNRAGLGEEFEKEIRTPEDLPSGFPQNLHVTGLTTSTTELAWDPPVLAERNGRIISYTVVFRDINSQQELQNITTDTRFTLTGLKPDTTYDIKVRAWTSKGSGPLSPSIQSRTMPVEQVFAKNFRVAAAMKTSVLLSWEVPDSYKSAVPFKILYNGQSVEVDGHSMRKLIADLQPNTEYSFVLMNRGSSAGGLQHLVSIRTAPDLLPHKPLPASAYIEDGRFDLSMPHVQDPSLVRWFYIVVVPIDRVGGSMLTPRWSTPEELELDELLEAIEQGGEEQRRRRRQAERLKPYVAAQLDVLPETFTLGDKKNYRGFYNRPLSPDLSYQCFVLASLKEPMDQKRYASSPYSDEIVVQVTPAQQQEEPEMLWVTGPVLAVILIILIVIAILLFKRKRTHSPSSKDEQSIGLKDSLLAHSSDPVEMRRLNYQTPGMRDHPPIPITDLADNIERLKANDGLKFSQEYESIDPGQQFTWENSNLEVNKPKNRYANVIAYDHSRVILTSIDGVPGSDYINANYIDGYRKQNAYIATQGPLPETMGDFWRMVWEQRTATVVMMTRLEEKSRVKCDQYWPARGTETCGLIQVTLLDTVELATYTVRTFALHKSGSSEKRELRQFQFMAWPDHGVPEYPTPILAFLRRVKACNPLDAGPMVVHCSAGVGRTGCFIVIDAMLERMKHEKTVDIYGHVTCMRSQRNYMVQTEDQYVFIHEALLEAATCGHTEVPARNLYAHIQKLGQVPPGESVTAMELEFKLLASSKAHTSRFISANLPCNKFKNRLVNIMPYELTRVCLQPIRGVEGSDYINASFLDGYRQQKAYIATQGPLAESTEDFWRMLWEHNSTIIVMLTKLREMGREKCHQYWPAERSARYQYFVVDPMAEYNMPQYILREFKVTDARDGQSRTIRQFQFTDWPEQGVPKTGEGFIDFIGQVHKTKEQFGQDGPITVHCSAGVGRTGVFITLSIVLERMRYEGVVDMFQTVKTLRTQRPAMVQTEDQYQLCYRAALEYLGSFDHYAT
Assay: Inhibition of LAR
readoutName: IC50

May I ask what IC50 has been recorded for Cc1cc(S(=O)(=O)O)c(S(=O)(=O)O)cc1N1N=C(C(=O)O)CC1=O ?
> 100 µM

----------
Molecular target: Tyrosine-protein phosphatase non-receptor type 11 (Homo sapiens)
Test: Inhibition of SHP2 catalytic domain assessed as inhibition of pNPP to p-nitrophenol conversion at 50 uM after 5 mins by spectrophotometry
Please respond with reported inhibition for every item in the list.
Field: numeric (%). Do not append units.

May I ask what inhibition has been recorded for O=C(O)c1ccc(NS(=O)(=O)c2cccc(C(=O)Nc3cccc(C(=O)O)c3)c2)cc1 ?
44

Also check O=C(O)c1ccc(NS(=O)(=O)c2cc(C(=O)O)ccc2Br)cc1
34.5

Also check COc1cc(/C=C2\SC(=S)N(C(CC(=O)O)C(=O)O)C2=O)ccc1O (stereo not given)
69.5

Also check O=C(O)Cc1ccc2[nH]c3ccc(CC(=O)O)cc3c2c1
52.5

Also check O=[N+]([O-])c1ccc(/C=N/Nc2ccc(S(=O)(=O)O)cc2)cc1
91.5
